Test system: MDA-MB-231 (Breast cancer)
Experiment: PrestoBlue cell viability, MDA-MB-231
Assay type: cell-based
Conditions: Homo sapiens, MDA-MB-231, 72 h
Procedure: The cells were screened for chemosensitivity to these compounds for 72 h with increasing concentrations of the compounds ranging from 0 to 100 μM in 96-well plates. Trifluoperazine was used as the reference compound. Each experiment was performed in triplicate and repeated at least three times. […] The effect of compound C was also evaluated by treating cellular lines derived from different tumors with increasing concentrations of this compound. […]

[
  {
    "compound": "CN(C)CCN1CCN(CCCN2c3ccccc3Sc3ccc(C(F)(F)F)cc32)CC1 [Compound C]",
    "measure.unit": "µM",
    "IC50": 14.1
  }
]
